- protocol text: AUC (0 to infinity) in rhesus monkey at 3 mg/kg, po
- Format: ADME, organism-based, Macaca mulatta
- Set-up: time infinity, dose 3 mg/kg, route oral
- condition set: plasma
reported endpoint: AUC(0-inf)
Report field: quantity (unit follows the number).

Incoming: Please report the recorded AUC(0-inf) for Cc1nc2cccc(C(F)(F)F)c2c(=O)n1-c1ccc(OCCCN2CCCC2)cc1 [MK-0249] .
Outgoing: 1.84 µM·h

---

Target sequence: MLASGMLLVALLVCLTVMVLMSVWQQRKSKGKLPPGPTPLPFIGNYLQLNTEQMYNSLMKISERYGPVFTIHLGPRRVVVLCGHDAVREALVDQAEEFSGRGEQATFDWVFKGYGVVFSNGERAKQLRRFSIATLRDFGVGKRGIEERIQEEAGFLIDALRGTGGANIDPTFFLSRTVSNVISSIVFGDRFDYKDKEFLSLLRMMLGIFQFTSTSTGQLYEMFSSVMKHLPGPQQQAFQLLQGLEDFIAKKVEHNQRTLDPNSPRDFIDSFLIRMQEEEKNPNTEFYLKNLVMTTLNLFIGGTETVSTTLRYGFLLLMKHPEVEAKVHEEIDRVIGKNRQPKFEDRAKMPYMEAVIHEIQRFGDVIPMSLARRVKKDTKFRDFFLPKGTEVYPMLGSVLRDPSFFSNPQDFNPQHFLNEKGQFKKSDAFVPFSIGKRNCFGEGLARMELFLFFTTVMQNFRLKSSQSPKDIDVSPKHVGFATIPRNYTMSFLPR
pIC50: −log10 of the molar value.
reported endpoint: pIC50

Incoming: Please report the recorded pIC50 for `Cc1nc2cccc(C(F)(F)F)c2c(=O)n1-c1ccc(OCCCN2CCCC2)cc1` .
Outgoing: < 4.57

---

This document collects IC50 values reported for Voltage-gated inwardly rectifying potassium channel KCNH2 (Homo sapiens).
Give just the number in µM; leave the unit off.

Incoming: Please report the recorded IC50 for `Cc1nc2ccccc2c(=O)n1-c1ccc(OCCCN2CCC[C@H](C)C2)cc1` .
Outgoing: 5.3

Incoming: Another: `Cc1nc2ccccc2c(=O)n1-c1ccc(OCCCN2CCC[C@@H]2C)cc1`
Outgoing: 6

Incoming: Another: Cc1nc2ccccc2c(=O)n1-c1ccc(OCCCN2CCC(C)C2)cc1 (centres undefined)
Outgoing: 6.4

---

- protocol text: Ratio of drug level in wild type MDR1a-proficient CF1 mouse brain to plasma at 10 mg/kg, po after 2 hrs
- Type: ADME, organism-based
- Parameters: dose 10 mg/kg, route oral
- condition set: read-out: BPR
reported endpoint: Kp at 2 h
Reply with just the number.

Incoming: Please report the recorded Kp at 2 h for `Cc1nc2cccc(C(F)(F)F)c2c(=O)n1-c1ccc(OCCCN2CCCC2)cc1` .
Outgoing: 0.8

---

- protocol text: Oral bioavailability in rhesus monkey at 3 mg/kg
- Assay type: ADME, organism-based, Macaca mulatta
- condition set: in vivo
reported endpoint: bioavailability (%)
Give just the number in %; leave the unit off.

Incoming: Please report the recorded bioavailability for `Cc1nc2cccc(C(F)(F)F)c2c(=O)n1-c1ccc(OCCCN2CCCC2)cc1` .
Outgoing: 28

---

- test target: Histamine H3 receptor (Rattus norvegicus, UniProt Q9QYN8)
- Sequence (Q9QYN8 whole entry): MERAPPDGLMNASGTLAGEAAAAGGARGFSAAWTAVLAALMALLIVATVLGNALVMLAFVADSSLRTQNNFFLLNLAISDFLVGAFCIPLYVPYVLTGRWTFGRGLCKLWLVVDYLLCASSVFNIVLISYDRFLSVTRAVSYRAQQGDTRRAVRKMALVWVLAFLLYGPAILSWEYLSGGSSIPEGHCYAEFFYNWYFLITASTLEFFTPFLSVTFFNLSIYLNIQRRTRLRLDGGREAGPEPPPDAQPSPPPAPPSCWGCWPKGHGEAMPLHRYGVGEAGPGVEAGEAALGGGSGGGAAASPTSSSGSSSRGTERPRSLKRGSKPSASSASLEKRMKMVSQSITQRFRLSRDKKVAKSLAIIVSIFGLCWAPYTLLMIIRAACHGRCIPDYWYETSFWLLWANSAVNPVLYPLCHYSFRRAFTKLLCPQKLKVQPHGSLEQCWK
- protocol text: Displacement of [3H]N-alpha-methylhistamine from rat histamine H3 receptor expressed in HEK293 cells coexpressed with CRE-beta-lactamase
reported endpoint: Ki (nM)
Give just the number in nM; leave the unit off.

Incoming: State its Ki on Histamine H3 receptor (Rattus norvegicus, UniProt Q9QYN8): `Cc1nc2cccc(C(F)(F)F)c2c(=O)n1-c1ccc(OCCCN2CCCC2)cc1`
Outgoing: 33

---

- protocol text: Volume of distribution at steady state in Beagle dog at 1 mg/kg, iv
- Format: ADME, organism-based, Canis lupus familiaris
- Parameters: dose 1 mg/kg, route intravenous
- condition set: in vivo, read-out: Vdss
reported endpoint: Vd

Incoming: Please report the recorded Vd for `Cc1nc2cccc(C(F)(F)F)c2c(=O)n1-c1ccc(OCCCN2CCCC2)cc1` .
Outgoing: 9.7 L/kg

Cited source for all entries: ChEMBL document CHEMBL1155810
